Measured pIC50, listed per entry for reference.
assayed-system: ATR (Homo sapiens, UniProt Q13535)
Construct: endogenous in cells
Sequence (Q13535 whole entry): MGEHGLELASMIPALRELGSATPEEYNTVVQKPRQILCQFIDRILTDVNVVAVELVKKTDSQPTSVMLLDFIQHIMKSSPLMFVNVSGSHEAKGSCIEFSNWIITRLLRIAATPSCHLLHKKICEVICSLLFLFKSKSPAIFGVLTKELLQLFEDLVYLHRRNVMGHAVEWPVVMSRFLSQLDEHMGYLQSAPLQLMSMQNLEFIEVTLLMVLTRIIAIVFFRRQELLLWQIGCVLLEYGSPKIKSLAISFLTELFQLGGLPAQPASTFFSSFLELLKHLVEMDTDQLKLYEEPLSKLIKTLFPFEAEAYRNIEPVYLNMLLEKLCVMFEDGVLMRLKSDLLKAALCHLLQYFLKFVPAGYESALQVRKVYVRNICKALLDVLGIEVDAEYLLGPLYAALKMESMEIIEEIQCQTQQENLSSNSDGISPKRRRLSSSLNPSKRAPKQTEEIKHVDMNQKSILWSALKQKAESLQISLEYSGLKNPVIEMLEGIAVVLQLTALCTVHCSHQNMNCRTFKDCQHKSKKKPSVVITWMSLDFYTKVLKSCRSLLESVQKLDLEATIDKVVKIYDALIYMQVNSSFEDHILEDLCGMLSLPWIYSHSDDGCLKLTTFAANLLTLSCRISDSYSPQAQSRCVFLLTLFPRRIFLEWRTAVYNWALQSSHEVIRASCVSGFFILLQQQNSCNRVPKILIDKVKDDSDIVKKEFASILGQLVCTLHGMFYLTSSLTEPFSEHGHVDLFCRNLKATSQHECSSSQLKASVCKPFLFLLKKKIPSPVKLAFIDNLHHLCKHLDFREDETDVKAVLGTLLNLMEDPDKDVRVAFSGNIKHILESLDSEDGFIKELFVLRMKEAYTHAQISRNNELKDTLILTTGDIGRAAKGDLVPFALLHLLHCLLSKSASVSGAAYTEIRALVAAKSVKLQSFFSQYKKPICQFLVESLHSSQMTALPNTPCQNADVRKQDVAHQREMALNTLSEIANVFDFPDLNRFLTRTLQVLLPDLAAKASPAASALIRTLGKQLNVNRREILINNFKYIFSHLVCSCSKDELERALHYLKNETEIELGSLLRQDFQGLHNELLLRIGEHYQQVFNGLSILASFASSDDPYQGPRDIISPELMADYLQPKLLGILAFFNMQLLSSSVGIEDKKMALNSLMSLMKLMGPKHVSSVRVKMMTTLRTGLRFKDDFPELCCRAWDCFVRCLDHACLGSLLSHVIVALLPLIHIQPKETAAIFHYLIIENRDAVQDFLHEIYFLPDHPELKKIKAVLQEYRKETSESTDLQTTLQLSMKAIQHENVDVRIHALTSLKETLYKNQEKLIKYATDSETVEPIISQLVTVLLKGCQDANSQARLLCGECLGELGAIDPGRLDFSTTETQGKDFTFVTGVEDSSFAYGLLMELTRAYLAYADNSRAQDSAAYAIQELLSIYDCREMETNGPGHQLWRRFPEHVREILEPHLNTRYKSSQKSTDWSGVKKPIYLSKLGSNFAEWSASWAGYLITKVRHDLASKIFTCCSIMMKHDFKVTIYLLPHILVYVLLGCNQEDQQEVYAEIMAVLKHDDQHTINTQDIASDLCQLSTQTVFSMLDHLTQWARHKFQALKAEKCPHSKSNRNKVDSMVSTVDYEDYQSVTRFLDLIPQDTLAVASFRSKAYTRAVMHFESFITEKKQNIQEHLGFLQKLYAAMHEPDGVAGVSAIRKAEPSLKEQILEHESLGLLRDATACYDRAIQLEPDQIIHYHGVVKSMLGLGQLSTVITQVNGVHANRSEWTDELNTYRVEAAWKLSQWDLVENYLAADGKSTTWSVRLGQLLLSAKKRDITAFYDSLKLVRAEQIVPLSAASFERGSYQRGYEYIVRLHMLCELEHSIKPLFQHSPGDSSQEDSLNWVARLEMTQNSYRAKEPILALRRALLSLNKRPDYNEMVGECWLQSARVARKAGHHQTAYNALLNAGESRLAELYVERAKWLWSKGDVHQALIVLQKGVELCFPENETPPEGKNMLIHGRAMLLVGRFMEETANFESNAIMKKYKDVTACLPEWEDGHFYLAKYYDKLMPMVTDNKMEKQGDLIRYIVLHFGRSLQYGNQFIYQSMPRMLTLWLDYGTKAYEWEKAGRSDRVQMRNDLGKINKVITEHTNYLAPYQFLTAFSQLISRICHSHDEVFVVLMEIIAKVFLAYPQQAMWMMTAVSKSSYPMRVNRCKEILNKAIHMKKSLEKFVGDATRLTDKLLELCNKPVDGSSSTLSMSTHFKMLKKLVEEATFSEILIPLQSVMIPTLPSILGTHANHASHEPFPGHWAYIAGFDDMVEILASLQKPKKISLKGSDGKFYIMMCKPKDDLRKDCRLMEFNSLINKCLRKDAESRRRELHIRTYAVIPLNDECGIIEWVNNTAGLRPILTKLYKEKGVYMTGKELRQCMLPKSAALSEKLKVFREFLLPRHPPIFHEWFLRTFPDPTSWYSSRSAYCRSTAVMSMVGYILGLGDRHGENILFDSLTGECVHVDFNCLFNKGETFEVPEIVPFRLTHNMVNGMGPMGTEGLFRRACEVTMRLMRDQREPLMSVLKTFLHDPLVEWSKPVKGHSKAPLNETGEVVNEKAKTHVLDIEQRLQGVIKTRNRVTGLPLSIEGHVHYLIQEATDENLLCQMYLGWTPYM
Sequence (Q8WXE1 whole entry partner): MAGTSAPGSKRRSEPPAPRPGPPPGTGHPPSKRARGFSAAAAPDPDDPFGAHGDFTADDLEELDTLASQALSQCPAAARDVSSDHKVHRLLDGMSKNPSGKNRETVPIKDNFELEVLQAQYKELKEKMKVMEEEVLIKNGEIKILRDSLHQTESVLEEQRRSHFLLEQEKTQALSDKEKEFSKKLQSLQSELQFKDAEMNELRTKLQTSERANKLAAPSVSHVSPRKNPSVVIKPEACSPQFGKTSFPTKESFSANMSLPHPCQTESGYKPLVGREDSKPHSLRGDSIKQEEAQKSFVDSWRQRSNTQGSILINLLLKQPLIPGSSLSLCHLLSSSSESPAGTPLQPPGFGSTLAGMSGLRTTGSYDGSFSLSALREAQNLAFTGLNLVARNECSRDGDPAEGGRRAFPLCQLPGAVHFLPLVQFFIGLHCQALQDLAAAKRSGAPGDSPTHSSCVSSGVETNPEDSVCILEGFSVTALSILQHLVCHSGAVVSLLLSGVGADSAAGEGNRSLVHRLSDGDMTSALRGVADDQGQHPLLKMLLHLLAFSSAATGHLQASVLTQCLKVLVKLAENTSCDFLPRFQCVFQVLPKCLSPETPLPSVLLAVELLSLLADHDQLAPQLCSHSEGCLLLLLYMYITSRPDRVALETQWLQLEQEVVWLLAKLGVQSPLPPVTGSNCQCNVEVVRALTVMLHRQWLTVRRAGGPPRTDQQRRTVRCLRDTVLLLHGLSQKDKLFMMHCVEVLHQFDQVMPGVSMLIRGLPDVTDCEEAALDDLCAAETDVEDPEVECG
assay: ATR cellular potency assay (pChk1 Ser345 in HT29 cells after 4NQO)
measurement-context: pChk1 (Ser 345); Table 2; read-out: Assay b) ATR Cell IC50
pIC50: −log10 of the molar value.

{"columns": ["compound", "value-qualifier", "pIC50"],
 "data": [
  ["CNC1CCN(c2ccc(-c3ccc4ncc5c(c4c3)n([C@@H]3CCCOC3)c(=O)n5C)cn2)CC1 [Example 58]", "<", 4.66],
  ["CN(C)[C@H]1CCN(c2ccc(-c3ccc4ncc5c(c4c3)n([C@H]3CCCOC3)c(=O)n5C)cn2)C1 [Example 17]", "<", 4.52],
  ["CNC1CCN(c2ccc(-c3cc4c(cc3F)ncc3c4n([C@H]4C[C@@H](OC)C4)c(=O)n3C)cn2)CC1 [Example 57]", "<", 4.52],
  ["CO[C@H]1CC[C@H](n2c(=O)n(C)c3cnc4ccc(-c5ccc(N6CC[C@@H](N(C)C)C6)nc5)cc4c32)C1 [Example 5]", "=", 6.55],
  ["CN(C)[C@H]1CCN(c2ccc(-c3ccc4ncc5c(c4c3)n([C@@H]3CCCOC3)c(=O)n5C)cn2)C1 [Example 16]", "<", 4.65],
  ["CNC1CCN(c2ccc(-c3ccc4ncc5c(c4c3)n(C3CCOCC3)c(=O)n5C)cn2)CC1 [Example 61]", "<", 4.59],
  ["CN(C)[C@@H]1CCN(c2ccc(-c3ccc4ncc5c(c4c3)n([C@H]3CCOC3)c(=O)n5C)cn2)C1 [Example 8]", "=", 6.58],
  ["CO[C@H]1C[C@@H](n2c(=O)n(C)c3cnc4cc(F)c(-c5ccc(N6CC[C@H](N(C)C)C6)nc5)cc4c32)C1 [Example 21]", "<", 4.52],
  ["CO[C@H]1CCC[C@H](n2c(=O)n(C)c3cnc4ccc(-c5ccc(N6CC[C@@H](N(C)C)C6)nc5)cc4c32)C1 (single isomer, unassigned) [Example 51]", "=", 7.04],
  ["CN(C)C1CCN(c2ccc(-c3ccc4ncc5c(c4c3)n([C@@H]3CCCOC3)c(=O)n5C)cn2)CC1 [Example 34]", "<", 4.52],
  ["CNC1CCN(c2ccc(-c3ccc4ncc5c(c4c3)n([C@H]3C[C@@H](OC)C3)c(=O)n5C)cn2)CC1 [Example 60]", "<", 4.52],
  ["CN(C)C1CN(c2ccc(-c3ccc4ncc5c(c4c3)n(C3CCOCC3)c(=O)n5C)cn2)C1 [Example 28]", "=", 4.73],
  ["CO[C@H]1CC[C@H](n2c(=O)n(C)c3cnc4ccc(-c5ccc(N6CC[C@@H](N(C)C)C6)nc5)cc4c32)CC1 [Example 12]", "=", 6.65],
  ["CN(C)C1CCN(c2ccc(-c3cc4c(cc3F)ncc3c4n([C@@H]4CCCOC4)c(=O)n3C)cn2)CC1 [Example 40]", "<", 4.52],
  ["CO[C@@H]1CCC[C@H](n2c(=O)n(C)c3cnc4ccc(-c5ccc(N6CC(N(C)C)C6)nc5)cc4c32)C1 (single isomer, unassigned) [Example 49]", "=", 5.72],
  ["CO[C@@H]1CCC[C@H](n2c(=O)n(C)c3cnc4ccc(-c5ccc(N6CC[C@@H](N(C)C)C6)nc5)cc4c32)C1 (single isomer, unassigned) [Example 48]", "=", 6.70],
  ["CO[C@H]1C[C@@H](n2c(=O)n(C)c3cnc4cc(F)c(-c5ccc(N6CCC[C@@H](N(C)C)C6)nc5)cc4c32)C1 [Example 43]", "<", 4.52],
  ["CO[C@H]1CC[C@H](n2c(=O)n(C)c3cnc4ccc(-c5ccc(N6CC(N(C)C)C6)nc5)cc4c32)C1 (single isomer, unassigned) [Example 22]", "=", 5.17],
  ["CO[C@H]1C[C@@H](n2c(=O)n(C)c3cnc4cc(F)c(-c5ccc(N6CC(N(C)C)C6)nc5)cc4c32)C1 [Example 31]", "<", 4.52],
  ["CN(C)[C@H]1CCN(c2ccc(-c3cc4c(cc3F)ncc3c4n([C@H]4CCCOC4)c(=O)n3C)cn2)C1 [Example 20]", "<", 4.52],
  ["CO[C@@H]1CCC[C@H](n2c(=O)n(C)c3cnc4ccc(-c5ccc(N6CC(N(C)C)C6)nc5)cc4c32)C1 (single isomer, unassigned) [Example 50]", "=", 5.71]
]}

====

Measured pIC50, listed per entry for reference.
assayed-system: mTOR (Homo sapiens)
Construct: phosphorylation of the Akt protein at Ser473 (AKT lies downstream of PI3Kα in the signal transduction pathway) in the MDA-MB-468 cells; endogenous in cells
assay: mTOR cellular potency assay (phospho-AKT Ser473 in MDA-MB-468 cells)
measurement-context: MDA-MB-468 cells, 2 h, phospho-AKT Ser473; Table 2; read-out: Assay d) mTOR Cell IC50
pIC50: −log10 of the molar value.
metric-name: pIC50

{"columns": ["compound", "value-qualifier", "quantitative-result"],
 "data": [
  ["CNC1CCN(c2ccc(-c3cc4c(cc3F)ncc3c4n([C@H]4C[C@@H](OC)C4)c(=O)n3C)cn2)CC1 [Example 57]", "=", 5.11],
  ["CN(C)C1CCN(c2ccc(-c3ccc4ncc5c(c4c3)n([C@@H]3CCCOC3)c(=O)n5C)cn2)CC1 [Example 34]", "=", 5.70],
  ["CN(C)[C@@H]1CCN(c2ccc(-c3ccc4ncc5c(c4c3)n([C@@H]3CCCOC3)c(=O)n5C)cn2)C1 [Example 7]", "=", 6.21],
  ["CN(C)C1CCN(c2ccc(-c3cc4c(cc3F)ncc3c4n([C@@H]4CCCOC4)c(=O)n3C)cn2)CC1 [Example 40]", "=", 4.66],
  ["CO[C@H]1CC[C@H](n2c(=O)n(C)c3cnc4ccc(-c5ccc(N6CCC(N(C)C)CC6)nc5)cc4c32)C1 (single isomer, unassigned) [Example 32]", "=", 5.82],
  ["CNC1CCN(c2ccc(-c3ccc4ncc5c(c4c3)n([C@H]3C[C@@H](OC)C3)c(=O)n5C)cn2)CC1 [Example 60]", "=", 6.00],
  ["CO[C@H]1C[C@@H](n2c(=O)n(C)c3cnc4ccc(-c5ccc(N6CCC(N(C)C)CC6)nc5)cc4c32)C1 [Example 36]", "=", 5.41],
  ["CO[C@H]1C[C@@H](n2c(=O)n(C)c3cnc4cc(F)c(-c5ccc(N6CC(N(C)C)C6)nc5)cc4c32)C1 [Example 31]", "=", 4.89],
  ["CN(C)[C@H]1CCN(c2ccc(-c3cc4c(cc3F)ncc3c4n([C@H]4CCCOC4)c(=O)n3C)cn2)C1 [Example 20]", "<", 4.52],
  ["CO[C@H]1C[C@@H](n2c(=O)n(C)c3cnc4cc(F)c(-c5ccc(N6CCC(N(C)C)CC6)nc5)cc4c32)C1 [Example 42]", "<", 4.82],
  ["CN(C)C1CCN(c2ccc(-c3ccc4ncc5c(c4c3)n([C@H]3CCCOC3)c(=O)n5C)cn2)CC1 [Example 35]", "=", 4.78]
]}

====

assayed-system: ATR (Homo sapiens, UniProt Q13535)
Construct: endogenous in cells; host or cells: HT29 cells (ECACC #85061109)
assay: ATR cellular potency assay (pChk1 Ser345 in HT29 cells after 4NQO)
Type: cell-based
measurement-context: pChk1 (Ser 345); Table 2; read-out: Assay b) ATR Cell IC50
Procedure: The following assays were used to measure the effects of the compounds of the present invention: a) ATM cellular potency assay; b) PI3K cellular potency assay; c) mTOR cellular potency assay; d) ATR cellular potency assay. […] IC50 values were calculated using a smart fitting model in Genedata. […] After 2 h incubation at r.t., the plates were washed three times with […] PBS, using a Biotek EL405 plate washer, and plates were then sealed with black plate seals until read. […]
pIC50: −log10 of the molar value.
Measured pIC50, listed per entry for reference.
metric-name: pIC50

{"columns": ["compound", "assayed-system", "result"],
 "data": [
  ["CO[C@H]1CC[C@H](n2c(=O)n(C)c3cnc4ccc(-c5ccc(N6CCC(N(C)C)CC6)nc5)cc4c32)C1 (single isomer, unassigned) [Example 33]", "ATR (Homo sapiens, UniProt Q13535)", "< 4.59"],
  ["CNC1CCN(c2ccc(-c3ccc4ncc5c(c4c3)n([C@H]3CCCOC3)c(=O)n5C)cn2)CC1", "ATR (Homo sapiens, UniProt Q13535)", "< 4.52"],
  ["CO[C@H]1CCC[C@H](n2c(=O)n(C)c3cnc4ccc(-c5ccc(N6CC(N(C)C)C6)nc5)cc4c32)C1 (single isomer, unassigned) [Example 55]", "ATR (Homo sapiens, UniProt Q13535)", 6.09]
]}
